Source: paper PMC8348403

# PROTOCOL DETAILS: Pharmacokinetic study of tamatinib in rats after oral fostamatinib (UPLC-MS/MS of plasma)
# Assay type: in vivo, Wistar male rats
# PROTOCOL CONDITIONS: male, Wistar, rat, plasma, po, 12.5 mg/kg
QUANTITY NAME: Cmax (ng/mL)
The response must be a number in ng/mL with no trailing unit.

**Q:** Give the reported Cmax for this compound. COc1cc(Nc2ncc(F)c(Nc3ccc4c(n3)NC(=O)C(C)(C)O4)n2)cc(OC)c1OC
**A:** 653

---

# PROTOCOL DETAILS: Pharmacokinetic study of tamatinib in rats after oral fostamatinib (UPLC-MS/MS of plasma)
# Assay type: in vivo, Wistar male rats
# PROTOCOL CONDITIONS: male, Wistar, rat, plasma, po, 12.5 mg/kg; read-out: AUC0–48
QUANTITY NAME: AUC(0-t) (ng·h/mL)
Reply with just the number (in ng·h/mL).

**Q:** # return recorded AUC(0-t) for input COc1cc(Nc2ncc(F)c(Nc3ccc4c(n3)NC(=O)C(C)(C)O4)n2)cc(OC)c1OC [Tamatinib, tamatinib]
**A:** 5640
